biological target: Rhizopuspepsin (Rhizopus microsporus var. chinensis, UniProt P06026); assay: Inhibitory concentration against Rhizopus chinensis pepsin
Sequence (P06026 whole entry): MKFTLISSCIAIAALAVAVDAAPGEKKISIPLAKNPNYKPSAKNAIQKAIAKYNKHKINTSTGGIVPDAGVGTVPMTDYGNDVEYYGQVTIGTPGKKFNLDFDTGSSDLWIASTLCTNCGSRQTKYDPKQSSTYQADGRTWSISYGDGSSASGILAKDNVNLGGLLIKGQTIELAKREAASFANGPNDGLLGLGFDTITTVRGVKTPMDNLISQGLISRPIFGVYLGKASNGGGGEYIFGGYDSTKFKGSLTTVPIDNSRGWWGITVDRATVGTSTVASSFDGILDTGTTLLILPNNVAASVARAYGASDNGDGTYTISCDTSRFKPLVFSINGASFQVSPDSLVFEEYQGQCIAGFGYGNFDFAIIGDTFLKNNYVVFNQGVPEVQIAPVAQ
Readout Label: pIC50
One number for each entry, as −log10 of the molar value.

Look up pIC50 for this compound: O=C(COc1ccc([C@H]2CCNC[C@@H]2OCc2ccc(Br)cc2)cc1)c1ccc2ccccc2c1
5.70

* * *

Observed Ki values for Pepsin A (Homo sapiens, UniProt P0DJD9) are listed in what follows.
Non-standard residues stand in square brackets, D forms with d. Residues, ends and D or L forms follow the SMILES beside them. *: point of attachment. Sta = CC(C)C[C@H](N)[C@@H](O)CC(=O)O; NHIsopentyl = CC(C)CCN*; X1 = CC(C)CCOC(=O)*
Answers are plain numbers, in nM.

Compound: CC(C)CCNC(=O)[C@H](C)NC(=O)C[C@@](C)(O)[C@H](CC(C)C)NC(=O)[C@@H](NC(=O)[C@@H](NC(=O)OCCC(C)C)C(C)C)C(C)C
Experimental Target: Pepsin A (Homo sapiens, UniProt P0DJD9)
Sequence (P0DJD9 whole entry): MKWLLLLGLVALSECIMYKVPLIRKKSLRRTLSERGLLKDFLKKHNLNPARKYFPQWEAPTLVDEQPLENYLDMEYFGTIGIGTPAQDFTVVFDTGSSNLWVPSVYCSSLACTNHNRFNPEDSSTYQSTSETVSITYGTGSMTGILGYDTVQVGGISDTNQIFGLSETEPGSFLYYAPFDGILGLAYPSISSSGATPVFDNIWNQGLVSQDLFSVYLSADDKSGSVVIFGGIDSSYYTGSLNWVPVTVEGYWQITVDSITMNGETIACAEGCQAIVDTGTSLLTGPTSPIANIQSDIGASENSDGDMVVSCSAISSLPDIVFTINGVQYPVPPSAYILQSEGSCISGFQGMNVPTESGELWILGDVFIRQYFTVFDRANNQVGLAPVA
Ki / nM: 1.5

--- query ---
Look up Ki for this compound: CC(C)CCNC(=O)[C@H](C)NC(=O)C[C@H](O)[C@H](CC(C)C)NC(=O)[C@@H](NC(=O)[C@@H](NC(=O)OCCC(C)C)C(C)C)C(C)C (X1-VV[Sta]A-NHIsopentyl)
0.1
